Biological target: Gal4DBD/AaEcR (DEF) (Aedes aegypti)
Construct: The wildtype D, E, and F domains from mosquito Aedes aegypti EcR; expressed in transfected cells; host or cells: 3T3 cells
Sequence (P28704 286-520 A311G/G315S/G445S/I449V): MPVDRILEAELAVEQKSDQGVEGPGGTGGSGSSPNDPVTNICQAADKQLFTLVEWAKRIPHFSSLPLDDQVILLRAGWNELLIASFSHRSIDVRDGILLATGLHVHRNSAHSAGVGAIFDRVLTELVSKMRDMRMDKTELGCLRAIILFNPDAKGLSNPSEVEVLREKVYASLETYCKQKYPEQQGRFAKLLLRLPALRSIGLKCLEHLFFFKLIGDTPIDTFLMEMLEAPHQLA
Sequence (P49880 405-776): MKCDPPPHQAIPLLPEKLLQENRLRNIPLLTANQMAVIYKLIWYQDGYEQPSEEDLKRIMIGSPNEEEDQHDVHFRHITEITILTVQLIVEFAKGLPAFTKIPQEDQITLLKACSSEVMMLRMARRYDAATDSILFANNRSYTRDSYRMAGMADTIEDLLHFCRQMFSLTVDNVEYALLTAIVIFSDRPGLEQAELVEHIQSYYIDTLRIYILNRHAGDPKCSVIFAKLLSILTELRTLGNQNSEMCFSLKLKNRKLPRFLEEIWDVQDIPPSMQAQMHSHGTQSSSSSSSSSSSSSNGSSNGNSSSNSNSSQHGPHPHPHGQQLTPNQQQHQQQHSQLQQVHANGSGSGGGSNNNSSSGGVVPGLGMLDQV
Assay: cell-based
Type: cell-based
Settings: 33 μM; 3T3 cells; 48 h; average of two wells
REPORTED PROPERTY: Fold Induction Average, AA_3T3V1 Assay 33 μM (fold)
Respond with the bare value in fold.

Endpoint output: Fold Induction Average, AA_3T3V1 Assay 33 μM of Cc1ccc(C(=O)N2c3ccccc3C(Nc3ccccc3Cl)CC2C)cc1 (mixture of isomers) . Value?
2

Fold Induction Average, AA_3T3V1 Assay 33 μM for CCCCCC(=O)N(c1ccccc1)C1CC(C)N(C(=O)c2cccc(OC)c2)c2ccccc21 (stereo not shown) ?
1

// lookup Fold Induction Average, AA_3T3V1 Assay 33 μM for Cc1ccc(C(=O)N2c3ccc(F)cc3[C@H](Nc3ccc(F)cc3)C[C@@H]2C)cc1F (relative stereo)
518

Look at this compound and give its reported Fold Induction Average, AA_3T3V1 Assay 33 μM. CC1CC(Nc2ccccc2)c2ccccc2N1C(=O)c1ccccc1 (stereo not shown)
37

====

Test system: GAL4 DBD-CfEcR(DEF)/VP16AD-MmRXRE
Conditions: CHO 13B3 clone, 48 h, average of two wells
Description: GAL4 DBD-CfEcR(DEF)/VP16AD-MmRXRE: The wild-type D, E, and F domains from spruce budworm Choristoneura fumiferana EcR (“CfEcR-DEF”; SEQ ID NO: 1) were fused to a GAL4 DNA binding domain (“Gal4DBD1-147”; nucleotides 31 to 471 of SEQ ID NO: 2) and placed under the control of the SV40e promoter of pM vector (PT3119-5, Clontech, Palo Alto, Calif.). […] Luciferase reporter gene expression was measured 48 h after cell treatment using Bright-Glo™ Luciferase Assay System from Promega (E2650). […]
Record form. Attribute: Fold Induction Average, 13B3V1 Assay 33 μM. Fill in for each entry.
Dear colleague, please return just the value in fold, with no unit written.

Find the measured Fold Induction Average, 13B3V1 Assay 33 μM: item Cc1ccc(C(=O)N2c3ccc(F)cc3[C@H](Nc3ccc(F)cc3)C[C@@H]2C)cc1F (relative stereo) [Compound I-14] , target or system GAL4 DBD-CfEcR(DEF)/VP16AD-MmRXRE.
2

Form entry - test system: GAL4 DBD-CfEcR(DEF)/VP16AD-MmRXRE; read-out: Fold Induction Average, 13B3V1 Assay 33 μM; compound: Cc1ccc(N[C@H]2C[C@H](C)N(C(=O)c3ccc(C)c(F)c3)c3ccc(C)cc32)cc1 (relative stereo) [Compound I-22]
1

Look up Fold Induction Average, 13B3V1 Assay 33 μM with GAL4 DBD-CfEcR(DEF)/VP16AD-MmRXRE for this compound: CC(=O)N1c2ccccc2C(N(C(=O)c2ccccc2F)c2ccccc2)CC1C (stereo not drawn) [Compound I-185]
1

Lab note: need Fold Induction Average, 13B3V1 Assay 33 μM for C[C@H]1C[C@H](Nc2ccc(F)cc2)c2cc(F)ccc2N1C(=O)c1ccc(C(F)(F)F)c(F)c1 (relative stereo) [Compound I-27] on GAL4 DBD-CfEcR(DEF)/VP16AD-MmRXRE, anyone have it?
6

GAL4 DBD-CfEcR(DEF)/VP16AD-MmRXRE / Fold Induction Average, 13B3V1 Assay 33 μM / C[C@H]1C[C@H](Nc2ccccc2)c2ccccc2N1C(=O)c1ccc(F)c(F)c1 (relative stereo) [Compound I-15] : value?
1

# value lookup — system GAL4 DBD-CfEcR(DEF)/VP16AD-MmRXRE, readout Fold Induction Average, 13B3V1 Assay 33 μM, item Cc1ccc(NC2CC(C)N(C(=O)c3ccc(Cl)cc3)c3ccc(C)cc32)cc1 (stereo not drawn) [Compound I-144]
4

What measured Fold Induction Average, 13B3V1 Assay 33 μM is associated with CC1CC(N(C(=O)C2CC2)c2ccccc2)c2ccccc2N1C(=O)C1CC1 (stereo not drawn) [Compound I-155] on GAL4 DBD-CfEcR(DEF)/VP16AD-MmRXRE?
1

Form field: Fold Induction Average, 13B3V1 Assay 33 μM recorded for C[C@H]1C[C@H](Nc2ccc(F)cc2)c2cc(F)ccc2N1C(=O)c1ccc(F)c(F)c1 (relative stereo) [Compound I-26] with GAL4 DBD-CfEcR(DEF)/VP16AD-MmRXRE (enter value)
95

Lab note: need Fold Induction Average, 13B3V1 Assay 33 μM with GAL4 DBD-CfEcR(DEF)/VP16AD-MmRXRE for entry CC(=O)N(c1ccc(C)cc1)C1CC(C)N(C(=O)c2ccccc2)c2ccccc21 (stereo not drawn) [Compound I-149] , please look it up.
3

From: patent US20050228016A1
